- target_system: human 5HT transporter (Homo sapiens)
- Construct: host or cells: HEK cells
- Sequence (P31645 whole entry): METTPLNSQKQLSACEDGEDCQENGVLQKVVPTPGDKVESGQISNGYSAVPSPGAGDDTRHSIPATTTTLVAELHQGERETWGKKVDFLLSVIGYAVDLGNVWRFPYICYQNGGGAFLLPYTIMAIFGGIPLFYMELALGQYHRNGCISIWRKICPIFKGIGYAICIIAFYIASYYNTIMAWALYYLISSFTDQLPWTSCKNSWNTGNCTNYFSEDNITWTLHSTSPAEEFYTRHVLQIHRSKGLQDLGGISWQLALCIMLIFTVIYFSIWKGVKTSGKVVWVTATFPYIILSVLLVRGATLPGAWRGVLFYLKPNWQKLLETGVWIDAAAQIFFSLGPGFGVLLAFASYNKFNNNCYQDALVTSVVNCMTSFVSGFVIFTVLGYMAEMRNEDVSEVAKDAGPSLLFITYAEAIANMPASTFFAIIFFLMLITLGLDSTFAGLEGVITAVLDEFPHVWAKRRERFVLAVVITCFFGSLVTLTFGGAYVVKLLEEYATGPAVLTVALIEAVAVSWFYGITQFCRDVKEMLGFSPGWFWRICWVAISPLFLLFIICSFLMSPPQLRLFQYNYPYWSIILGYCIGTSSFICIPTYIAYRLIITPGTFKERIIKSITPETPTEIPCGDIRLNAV
- protocol_description: Binding experiment for 5-HT transporter ([3H]Paroxetine)
- Experimental: The interaction of the compounds of Formula (I) with dopamine-receptors, h5HT-transporter and h5HT1A receptor was assessed in in vitro radioligand binding experiments. […] When equilibrium of binding is reached, the receptor bound radioactivity is separated from the non-bound radioactivity, and the receptor- or transporter-bound activity is counted. The interaction of the test compounds with the receptor is assessed in competition binding experiments. […]
reported_property: pIC50
pIC50 is a log-scale quantity: -log10 of the concentration expressed in molar.

What value of pIC50 has been recorded for this entry: COc1cc2c(cc1OC)C1=NO[C@@H](CN3CC=C(c4cn(C)c5ccccc45)CC3)[C@@H]1CO2 (single isomer, unassigned)
7.20

---

- target_system: Human Dopamine D2L receptor (Homo sapiens)
- Construct: expressed in transfected cells; host or cells: CHO cells
- Sequence (P14416 whole entry): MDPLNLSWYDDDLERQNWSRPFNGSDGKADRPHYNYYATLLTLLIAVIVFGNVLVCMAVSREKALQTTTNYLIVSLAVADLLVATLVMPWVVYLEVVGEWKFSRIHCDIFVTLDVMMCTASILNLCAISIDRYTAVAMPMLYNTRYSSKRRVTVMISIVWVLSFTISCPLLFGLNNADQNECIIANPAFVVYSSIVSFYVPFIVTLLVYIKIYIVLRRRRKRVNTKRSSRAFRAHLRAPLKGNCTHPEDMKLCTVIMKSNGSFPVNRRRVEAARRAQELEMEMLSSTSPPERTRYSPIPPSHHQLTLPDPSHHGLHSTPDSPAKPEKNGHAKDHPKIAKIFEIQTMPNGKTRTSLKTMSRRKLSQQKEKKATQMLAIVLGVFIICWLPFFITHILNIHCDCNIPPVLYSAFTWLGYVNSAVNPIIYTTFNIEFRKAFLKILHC
- protocol_description: Binding experiment for dopamine D2 receptor ([3H]Spiperone)
- test_settings: D2L-transfected CHO cell membranes
reported_property: pIC50 D2
// no unit string in output, number only

What value of pIC50 D2 has been recorded for this entry: COc1cc2c(cc1OC)C1=NOC(CN3CCC(c4c[nH]c5cccc(F)c45)CC3)C1CO2 (racemic) [Compound 17]
6.9

What value of pIC50 D2 has been recorded for this entry: COc1cc2c(cc1OC)C1=NOC(CN3CCC(c4c[nH]c5ccc(C#N)cc45)CC3)C1CO2 (racemic) [Compound 24]
6.4

What value of pIC50 D2 has been recorded for this entry: Fc1ccc2[nH]cc(C3=CCN(CC4ON=C5c6ccc(N7CCOCC7)cc6OCC54)CC3)c2c1 (racemic) [Compound 55]
6.3

What value of pIC50 D2 has been recorded for this entry: COc1cc2c(cc1OC)C1=NOC(CN3CC=C(c4c[nH]c5ccc(F)cc45)CC3)C1CO2 (single isomer, unassigned) [Compound 3]
6.0

What value of pIC50 D2 has been recorded for this entry: Fc1ccc2c(C3CCN(CC4ON=C5c6ccc(NCCN7CCCC7)cc6OCC54)CC3)c[nH]c2c1 (racemic) [Compound 51]
7.9

What value of pIC50 D2 has been recorded for this entry: COc1cc2c(cc1OC)C1=NOC(CN3CC=C(c4c[nH]c5cc(F)ccc45)CC3)C1CO2 (racemic) [Compound 27]
6.9

---

- target_system: human 5HT transporter (Homo sapiens)
- Construct: host or cells: HEK cells
- protocol_description: Binding experiment for 5-HT transporter ([3H]Paroxetine)
- test_settings: transfected HEK cell membranes, [3H]Paroxetine
reported_property: pIC50 5HTT

What value of pIC50 5HTT has been recorded for this entry: COc1cc2c(cc1OC)C1=NOC(CN3CCC(c4c[nH]c5ccc(F)cc45)CC3)C1CO2 (single isomer, unassigned) [Compound 15]
7.1

What value of pIC50 5HTT has been recorded for this entry: Fc1ccc2[nH]cc(C3=CCN(CC4ON=C5c6cc7c(cc6OCC54)OCCO7)CC3)c2c1 (single isomer, unassigned) [Compound 28]
7.8

What value of pIC50 5HTT has been recorded for this entry: COc1cc2c(cc1OC)C1=NOC(CNCCCc3c[nH]c4ccc(F)cc34)C1CO2 (single isomer, unassigned) [Compound 4]
7.8

What value of pIC50 5HTT has been recorded for this entry: COc1cc2c(cc1OC)C1=NOC(CN3CC=C(c4c[nH]c5cccc(F)c45)CC3)C1CO2 (single isomer, unassigned) [Compound 13]
7.7

What value of pIC50 5HTT has been recorded for this entry: COCCOCOc1cc2c(cc1OC)C1=NOC(CN3CC=C(c4c[nH]c5ccc(F)cc45)CC3)C1CO2 (racemic) [Compound 63]
7.6
